system_tested: SMARCA4-HiBiT HeLa cells (protein which is expressed from the SMARCA4 gene) (Homo sapiens, UniProt P51532)
Construct: protein which is expressed from the SMARCA2 and SMARCA4 genes; host or cells: HeLa (SMARCA4-HiBiT engineered line)
Sequence (P51532 whole entry): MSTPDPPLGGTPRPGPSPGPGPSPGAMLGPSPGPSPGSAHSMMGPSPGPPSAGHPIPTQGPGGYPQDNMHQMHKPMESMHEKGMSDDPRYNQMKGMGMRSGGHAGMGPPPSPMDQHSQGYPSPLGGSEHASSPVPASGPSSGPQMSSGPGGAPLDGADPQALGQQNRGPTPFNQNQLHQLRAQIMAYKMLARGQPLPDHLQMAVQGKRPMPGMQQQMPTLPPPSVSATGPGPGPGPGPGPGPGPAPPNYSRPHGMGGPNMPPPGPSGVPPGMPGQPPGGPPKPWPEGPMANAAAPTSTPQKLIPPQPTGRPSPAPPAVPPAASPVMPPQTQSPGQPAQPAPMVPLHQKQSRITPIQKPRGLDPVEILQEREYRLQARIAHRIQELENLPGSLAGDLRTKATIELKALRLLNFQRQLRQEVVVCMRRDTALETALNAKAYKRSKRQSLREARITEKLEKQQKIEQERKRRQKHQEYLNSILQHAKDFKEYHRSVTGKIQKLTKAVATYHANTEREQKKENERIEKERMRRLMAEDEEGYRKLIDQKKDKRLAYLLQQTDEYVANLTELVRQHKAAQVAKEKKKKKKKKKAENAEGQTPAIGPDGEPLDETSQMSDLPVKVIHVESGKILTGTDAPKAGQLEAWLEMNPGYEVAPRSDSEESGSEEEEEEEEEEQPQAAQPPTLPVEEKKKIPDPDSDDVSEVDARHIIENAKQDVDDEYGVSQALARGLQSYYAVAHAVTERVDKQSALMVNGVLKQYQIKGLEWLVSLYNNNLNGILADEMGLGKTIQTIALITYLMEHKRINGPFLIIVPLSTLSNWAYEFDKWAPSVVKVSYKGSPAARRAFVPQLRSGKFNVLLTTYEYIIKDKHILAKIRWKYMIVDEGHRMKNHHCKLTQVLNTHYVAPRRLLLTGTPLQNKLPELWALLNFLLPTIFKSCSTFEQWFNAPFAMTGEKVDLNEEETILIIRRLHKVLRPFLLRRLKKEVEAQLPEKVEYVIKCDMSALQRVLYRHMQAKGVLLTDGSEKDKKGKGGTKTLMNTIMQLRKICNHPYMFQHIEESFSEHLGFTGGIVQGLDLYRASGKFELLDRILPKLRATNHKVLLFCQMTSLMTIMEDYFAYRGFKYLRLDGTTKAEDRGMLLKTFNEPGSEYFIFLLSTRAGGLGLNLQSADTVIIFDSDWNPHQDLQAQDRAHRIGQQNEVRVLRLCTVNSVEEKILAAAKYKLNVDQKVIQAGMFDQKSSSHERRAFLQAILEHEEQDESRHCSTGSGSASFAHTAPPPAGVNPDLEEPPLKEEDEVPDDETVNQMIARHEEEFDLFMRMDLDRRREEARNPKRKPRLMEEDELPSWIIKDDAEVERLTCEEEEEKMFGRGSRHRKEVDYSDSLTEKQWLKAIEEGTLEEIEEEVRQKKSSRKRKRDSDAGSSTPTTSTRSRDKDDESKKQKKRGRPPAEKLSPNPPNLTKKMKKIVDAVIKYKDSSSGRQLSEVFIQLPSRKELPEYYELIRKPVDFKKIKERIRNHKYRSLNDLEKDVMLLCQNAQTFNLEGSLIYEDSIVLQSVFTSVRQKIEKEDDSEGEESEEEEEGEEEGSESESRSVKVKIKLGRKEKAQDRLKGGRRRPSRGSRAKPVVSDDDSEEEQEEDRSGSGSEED
test_protocol: SMARCA4 degradation assay (HiBiT-fusion HeLa cell line, 24 h, luminescence)
Format: cell-based
Source text: SMARCA2 and SMARCA4 Degradation Assay Degradation of protein which is expressed from the SMARCA2 and SMARCA4 genes was monitored using engineered HiBiT-fusion HeLa cell lines from Promega. […] 24-hours post-treatment, protein levels were quantified with the addition of HiBiT lytic buffer, LgBiT protein, and HiBiT substrate, according to manufacturer's specifications. […]

>  <compound>
C[C@@H]1COC[C@H](C)N1CC#Cc1nccc(N2CCCN(c3cc(-c4ccccc4O)nnc3N)CC2)n1

>  <DC50>
0.05 to 0.5 µM

$$$$
>  <compound>
C[C@@H]1CCN(c2cc(-c3ccccc3O)nnc2N)CCN1c1ccnc(C#CCN2CCC(C#N)C2)n1 (stereo partly drawn)

>  <DC50>
0.05 to 0.5 µM

$$$$
>  <compound>
C[C@H]1CCN(c2cc(-c3ccccc3O)nnc2N)CCN1c1ccnc(C#CCNC(=O)c2cnc3ccccc3n2)n1

>  <DC50>
< 0.05 µM

$$$$
>  <compound>
NC/C=C/c1nccc(N2CCCN(c3cc(-c4ccccc4O)nnc3N)CC2)n1

>  <DC50>
0.5 to 5 µM

$$$$
>  <compound>
Cc1cc(C)n(CC#Cc2nccc(N3CCN(c4cc(-c5ccccc5O)nnc4N)CC[C@H]3C)n2)n1

>  <DC50>
0.05 to 0.5 µM

$$$$
>  <compound>
N#CCNCC#Cc1nccc(N2CCCN(c3cc(-c4ccccc4O)nnc3N)CC2)n1

>  <DC50>
0.05 to 0.5 µM

$$$$
>  <compound>
C[C@@H]1CCN(c2cc(-c3ccccc3O)nnc2N)CCN1c1ccnc(C#CCN2CC[C@@H](F)C2)n1

>  <DC50>
< 0.05 µM

$$$$
>  <compound>
Nc1nnc(-c2ccccc2O)cc1N1C2CCC1CN(c1ccnc(C#CCn3cncn3)n1)C2

>  <DC50>
0.05 to 0.5 µM

$$$$
>  <compound>
Cn1cnc(C(=O)NCC#Cc2nccc(N3CCN(c4cc(-c5ccccc5O)nnc4N)CC3)n2)c1

>  <DC50>
0.05 to 0.5 µM

$$$$
>  <compound>
C[C@H]1CN(c2ccnc(C#CCn3cncn3)n2)CCN1c1cc(-c2ccccc2O)nnc1N

>  <DC50>
0.05 to 0.5 µM

$$$$
>  <compound>
Nc1nnc(-c2ccccc2O)cc1N1CCCN(c2ccnc(C#CCN[C@H]3CCOC3)n2)CC1

>  <DC50>
0.05 to 0.5 µM

$$$$
>  <compound>
CC1CN(c2ccnc(C#CCNC(=O)c3cc4ncccn4n3)n2)CCN(c2cc(-c3ccccc3O)nnc2N)C1 (stereo not drawn)

>  <DC50>
0.05 to 0.5 µM

$$$$
>  <compound>
CSCC#Cc1nccc(N2CCCN(c3cc(-c4ccccc4O)nnc3N)CC2)n1

>  <DC50>
0.05 to 0.5 µM

$$$$
>  <compound>
C[C@@H]1CCN(c2cc(-c3ccccc3O)nnc2N)CCN1c1ccnc(C#CC2CC(F)(F)C2)c1

>  <DC50>
0.05 to 0.5 µM

$$$$
>  <compound>
Nc1nnc(-c2ccccc2O)cc1N1CC2CCC(C1)N2c1ccnc(C#CCNC(=O)c2cccnc2)n1

>  <DC50>
0.05 to 0.5 µM

$$$$

* * *

system_tested: SMARCA4-HiBiT HeLa cells (protein which is expressed from the SMARCA4 gene) (Homo sapiens, UniProt P51532)
Construct: protein which is expressed from the SMARCA2 and SMARCA4 genes; host or cells: HeLa (SMARCA4-HiBiT engineered line)
test_protocol: SMARCA4 degradation assay (HiBiT-fusion HeLa cell line, 24 h, luminescence)
Type: cell-based
test_context: @ 1 μM
Each entry below lists one item and its recorded inhibition at 1 µM value.
recorded_endpoint: inhibition at 1 µM

>  <molecule>
Cn1ccc(NCC#Cc2nccc(N3CCCN(c4cc(-c5ccccc5O)nnc4N)CC3)n2)n1

>  <observed_measurement>
30 to 70%

$$$$
>  <molecule>
Nc1nnc(-c2ccccc2O)cc1N1CC2CCC(C1)N2c1nc(C#CCn2ccnc2)ncc1F

>  <observed_measurement>
> 70%

$$$$
>  <molecule>
Nc1nnc(-c2ccccc2O)cc1N1CC2CCC(C1)N2c1ccnc(C#CCNc2nc3ccccc3o2)n1

>  <observed_measurement>
30 to 70%

$$$$
>  <molecule>
C[C@@H]1CCN(c2cc(-c3ccccc3O)nnc2N)CCN1c1ccnc(C#CCN(C)CCF)n1

>  <observed_measurement>
< 30%

$$$$
>  <molecule>
C[C@@H]1CCN(c2cc(-c3ccccc3O)nnc2N)CCN1c1ccnc(C#CCN2CC3CCC2CO3)n1 (some centres unmarked)

>  <observed_measurement>
30 to 70%

$$$$
>  <molecule>
Cc1c(C(=O)NCC#Cc2nccc(N3CCN(c4cc(-c5ccccc5O)nnc4N)CC[C@H]3C)n2)nn(C)c1C

>  <observed_measurement>
30 to 70%

$$$$
>  <molecule>
Cn1ccnc1C#Cc1nccc(N2CCCN(c3cc(-c4ccccc4O)nnc3N)CC2)n1

>  <observed_measurement>
30 to 70%

$$$$
>  <molecule>
Nc1nnc(-c2ccccc2O)cc1N1CCN(c2ccnc(C#CCNC(=O)c3ccn(CC(F)(F)F)n3)n2)CC1

>  <observed_measurement>
30 to 70%

$$$$
>  <molecule>
C[C@@H]1CCN(c2cc(-c3ccccc3O)nnc2N)CCN1c1ccnc(C#C[C@@H](O)C2CC2)n1

>  <observed_measurement>
> 70%

$$$$
>  <molecule>
Nc1nnc(-c2ccccc2O)cc1N1CCCN(c2ccnc(C#CCN3CCOC3=O)n2)CC1

>  <observed_measurement>
30 to 70%

$$$$
>  <molecule>
CC(C)(C)OC(=O)N1CCC[C@H]1C#Cc1nccc(N2CCCN(c3cc(-c4ccccc4O)nnc3N)CC2)n1

>  <observed_measurement>
30 to 70%

$$$$
>  <molecule>
C[C@@H]1CCN(c2cc(-c3ccccc3O)nnc2N)CCN1c1ccnc(C#CC2CN(CC(F)F)C2)n1

>  <observed_measurement>
30 to 70%

$$$$
>  <molecule>
Nc1nnc(-c2ccccc2O)cc1N1CC2CC(C1)N2c1ccnc(C#CCN2CC(F)(F)C2)n1

>  <observed_measurement>
30 to 70%

$$$$
>  <molecule>
Cn1cnc(C(=O)NCC#Cc2nccc(N3CCN(c4cc(-c5ccccc5O)nnc4N)CC3)n2)c1

>  <observed_measurement>
< 30%

$$$$
>  <molecule>
CNCC#Cc1nccc(N2C[C@H]3C[C@@H]2CN3c2cc(-c3ccccc3O)nnc2N)n1

>  <observed_measurement>
< 30%

$$$$
>  <molecule>
C[C@@H]1CCN(c2cc(-c3ccccc3O)nnc2N)CCN1c1ccnc(C#CCN2[C@H](C)C[C@@H]2C)n1

>  <observed_measurement>
30 to 70%

$$$$
>  <molecule>
Cc1cc(C(=O)NCC#Cc2nccc(N3CCN(c4cc(-c5ccccc5O)nnc4N)CC3)n2)no1

>  <observed_measurement>
30 to 70%

$$$$
>  <molecule>
C[C@@H]1CCN(c2cc(-c3ccccc3O)nnc2N)CCN1c1ccnc(C#CCN2CC(F)(F)C2)n1

>  <observed_measurement>
30 to 70%

$$$$
>  <molecule>
CC[C@@H](C)NCC#Cc1nccc(N2CCCN(c3cc(-c4ccccc4O)nnc3N)CC2)n1

>  <observed_measurement>
30 to 70%

$$$$
>  <molecule>
C[C@@H]1CCN(c2cc(-c3ccccc3O)nnc2N)CCN1c1ccnc(C#CC2CN(CC(F)(F)F)C2)n1

>  <observed_measurement>
30 to 70%

$$$$
>  <molecule>
Cc1nccn1CC#Cc1nccc(N2CCN(c3cc(-c4ccccc4O)nnc3N)CC[C@H]2C)n1

>  <observed_measurement>
30 to 70%

$$$$
>  <molecule>
Nc1nnc(-c2ccccc2O)cc1N1CCCN(c2ccnc(C#CCN3CC(=O)NC(=O)C3)n2)CC1

>  <observed_measurement>
< 30%

$$$$
>  <molecule>
C[C@@H]1CCN(c2cc(-c3ccccc3O)nnc2N)CCN1c1ccnc(C#CCNC(=O)c2cc3ncccn3n2)n1

>  <observed_measurement>
30 to 70%

$$$$
>  <molecule>
CC(C)[C@@H]1COCCN1CC#Cc1nccc(N2CCN(c3cc(-c4ccccc4O)nnc3N)CC[C@H]2C)n1

>  <observed_measurement>
30 to 70%

$$$$
>  <molecule>
Nc1nnc(-c2ccccc2O)cc1N1CCCN(c2ccnc(C#CCNCCF)n2)CC1

>  <observed_measurement>
30 to 70%

$$$$
>  <molecule>
Nc1nnc(-c2ccccc2O)cc1N1CCCN(c2ccnc(C#CCn3ccc(-c4ccccn4)n3)n2)CC1

>  <observed_measurement>
30 to 70%

$$$$
>  <molecule>
Nc1nnc(-c2ccccc2O)cc1N1C[C@H]2C[C@@H]1CN2c1ccnc(C#CCN2CCCCC2)n1

>  <observed_measurement>
< 30%

$$$$
>  <molecule>
Cc1nc(C)n(CC#Cc2nccc(N3CCN(c4cc(-c5ccccc5O)nnc4N)CC[C@H]3C)n2)c1C

>  <observed_measurement>
> 70%

$$$$
>  <molecule>
Oc1ccccc1-c1cc(N2CC3CCC(C2)N3c2ccnc(C#CCN3CCCCC3)n2)cnn1

>  <observed_measurement>
< 30%

$$$$
